All figures here come from patent US20240067748A1.

Target: T1, monkey Trop2 protein (Sino Biological, #90893-C08H) (monkey, UniProt A0A2K5UE71 27-274)
T1 construct: bought protein; also called monkey Trop2 protein antigen (His tag)
T1 sequence: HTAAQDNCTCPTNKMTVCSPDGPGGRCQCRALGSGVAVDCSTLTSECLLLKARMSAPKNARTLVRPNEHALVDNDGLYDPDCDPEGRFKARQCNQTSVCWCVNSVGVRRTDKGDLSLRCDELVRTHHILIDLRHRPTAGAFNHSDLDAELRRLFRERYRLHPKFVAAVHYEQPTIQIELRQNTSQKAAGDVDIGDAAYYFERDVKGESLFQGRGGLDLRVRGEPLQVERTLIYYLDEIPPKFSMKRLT
Test: BLI, Octet RED96; ratio against KD for human Trop2 protein
The entries below come with measured KD (monkey)/KD (human) values attached.
# respond with the number and nothing more

* PR001154 (antibody, human IgG1, kappa, V domains shown, fully human IgG1/kappa; also called antibody No. (17)) VH: QVQLVESGGGVVQPGRSLRLSCEASGFTFSHYGMHWVRQAPGKGLEWVAVIWYDGIKKYYIESVKGRFIISRDNSKNTLYLQMNRLRAEDTAVYYCARDGGFGELNYYGLDVWGQGTTVTVSS VL: DIQLTQSPSFLSASVGDRVTITCRASQGISSYLGWYQQKPGKAPKLLIYVASTLQSGVPSRFSGSGSGTEFTLTISSLQPEDFATYYCQQLNSYPYTFGQGTKLEIKR | 2.24
* PR001164 (antibody, human IgG1, kappa, V domains shown, fully human IgG1/kappa; also called antibody No. (25)) VH: QVQLQQSGPGLVKPSQTLSLTCAISGDSVSSTSAVWNWIRQSPSRGLEWLGRTCYRSKWYNDYAVSVKSRITITPDTSKNQFSLRLNPVTPEDTAVYYCARGDFRFDSWGQGTLVTVSS VL: DIQLTQSPSFLSASVGDRVTITCRASQGISSYLAWYQQKPGKAPKLLIYAASTLQSGVPSRFSGSGSGTEFTLTISSLQPEDFATYYCQQVKIYPLTFGGGTKVEIKR | 0.85
* PR001162 (antibody, human IgG1, kappa, V domains shown, fully human IgG1/kappa; also called antibody No. (23)) VH: QVQLVESGGGVVQPGTSLRLSCVASGFTFSNDGMHWVRQAPGMGLEWVAIMWFDGGSKYYADSVKGRFTISRDNSKNTLYLQMNNLRAEDTAVYYCARDHPHYLGSGSFDYWGQGTLVTVSS VL: EIVLTQSPATLSLSPGERATLSCRASQSVSSYLAWYQQKPGQAPRLLIYDASNRATGIPARFSGSGSGTDFTLTISSLQAEDVAVYYCQQYYSTPYTFGQGTKLEIKR | 2.16
* PR001155 (antibody, human IgG1, kappa, V domains shown, fully human IgG1/kappa; also called antibody No. (18)) VH: QVQLVQSGGGVVQPGRSLRLSCAASGFTFSHYGMHWVRQAPGKGLEWVAVIWYDGIKKYYVESVKGRFTISRDNSKNTLYLQMNRLRAEDTAVYYCARDGGFGELNYYGLDVWGQGTTVTVSS VL: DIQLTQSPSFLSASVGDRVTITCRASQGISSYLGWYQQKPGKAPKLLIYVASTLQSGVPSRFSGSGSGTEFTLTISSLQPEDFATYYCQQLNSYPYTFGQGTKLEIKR | 2.32
* PR001151 (antibody, human IgG1, kappa, V domains shown, fully human IgG1/kappa; also called antibody No. (14)) VH: QVQLVESGGGVVQPGRSLRLSCAASGFTFSHYGMHWVRQAPGKGLEWVAVIWYDGIKKDYVESVKGRFTISRDNSKNTLYLQMNRLRAEDTAVYYCARDGGFGELNYYGLDVWGQGTTVTVSS VL: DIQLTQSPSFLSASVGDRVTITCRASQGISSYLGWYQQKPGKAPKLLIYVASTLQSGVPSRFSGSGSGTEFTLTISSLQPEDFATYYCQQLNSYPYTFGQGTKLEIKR | 2.12
* PR001156 (antibody, human IgG1, kappa, V domains shown, fully human IgG1/kappa; also called antibody No. (19)) VH: QVQLVESGGGVVQPGRSLRLSCEGSGFTFSHYGMHWVRQAPGKGLEWVAVIWYDGIKKNYVDSLKGRFTISRDNSKNTLYLQMNSLRAEDTAVYYCARDGGFGELNYYGMDVWGQGTTVTVSS VL: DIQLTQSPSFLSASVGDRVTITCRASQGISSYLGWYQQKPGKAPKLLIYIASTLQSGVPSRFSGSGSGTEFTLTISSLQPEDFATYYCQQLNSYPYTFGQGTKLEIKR | 5.85
* PR001150 (antibody, human IgG1, kappa, V domains shown, fully human IgG1/kappa; also called antibody No. (13)) VH: QVQLVESGGGVVQPEKSLRLSCAASGFTFSHYGMHWVRQVPGKGLEWVAVIWYDGIKRYYVESVKGRFTISRDNSKNTLYLQMNRLRAEDTAVYYCARDGGFGESNYYGLDVWGQGTTVTVSS VL: DIQLTQSPSFLSASVGDRVTITCRASQGINSYLGWYQRKPGKAPKLLIYIASTLQSGVPSRFSGSGSGTEFTLTISSLQPEDFATYYCQQLNSYPYTFGQGTKLEIKR | 9.76
* PR001134 (antibody, human IgG1, kappa, V domains shown, fully human IgG1/kappa; also called antibody No. (6)) VH: QVQLVESGGGVVQPGRSLRVSCIASGFFFSSYGMHWVRQAPGKGLEWVAVIWYDGSNEDYVDSVKGRFTISRDNSKNTLYLQMNSLRGEDTAMYYCARGGYNSGWWAFDIWGQGTMVTVSS VL: DIQMTQSPSSLSASVGDRVTITCRASQGISHFLAWYQQKPGKVPKLLIYAASTLQSGVPSRFSGSGSGTDFTLTISSLQPEDVATYYCQKFNSAPLTFGGGTKVEIKR | 1.72

Assign KD (monkey)/KD (human) to the following record: PR001168 (antibody, human IgG1, kappa, V domains shown, fully human IgG1/kappa; also called antibody No. (28)) VH: QVQLVESGGGVVQPGRSLRLSCATSGFIFSSYGMHWVRQAPGKGLDWVAVIWYDGSNKYYADSVKGRFTISRDNSKNTLYLQMNSLRVEDTAVYYCARETSSWYVGYLQHWGQGTLVTVSS VL: EIVMTQSPATLSVSPGERVSLSCRASQSVNGNVAWYQQKPGQAPRLLIYAASTRATGIPARFSGSGSGTESTLTISSLQSEDCAVYYCQQYNNWPSTFGPGTKLEVTR
1.54

Assign KD (monkey)/KD (human) to the following record: PR001160 (antibody, human IgG1, kappa, V domains shown, fully human IgG1/kappa; also called antibody No. (22)) VH: QVQLVESGGGVVQPGRSLRLSCEASGFTFSHYGMHWVRQAPGKGLEWVAVIWYDGIMKNYIESVKGRFTISRDNSKNTLYLQMNRLRAEDTAVYYCARDGGFGELNYYGLDVWGQGTTVTVSS VL: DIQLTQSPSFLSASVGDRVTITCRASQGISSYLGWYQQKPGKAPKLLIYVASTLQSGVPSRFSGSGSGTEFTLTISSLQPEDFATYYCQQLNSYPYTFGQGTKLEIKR
2.22
